system: KM12; assay: NCI tumour cell line growth inhibition, 48 h
Calls of active or inactive are those of the source. Rule as the data show it: active = GI50 up to about 1.1 µM and inactive = higher.
Outcome codes: active, inactive

MOLECULE	CATEGORY
Cc1ccc(Nc2n[nH]c(=S)s2)cc1	inactive
O=c1[nH]c(N/N=C\C(=N/Nc2nc3ccccc3c(=O)[nH]2)C(O)C(O)C(O)CO)nc2ccccc12 (stereo unspecified)	inactive
CC(C)(C)n1c(=O)[nH]n(C2NN=Cc3cccc4cccc2c34)c1=O (stereo unspecified)	inactive
CC1(C)COC(c2c(-c3ccccc3)noc2C[S+]([O-])c2ccccc2)=N1 (stereo unspecified)	inactive
COc1ccc2c(c1)C(=O)CCc1cc(OC)c(OC)c(OC)c1-2	active
CCc1cc(=O)n(/C(C)=C/c2ccccc2)n1C	inactive
O=C1Nc2ccccc2/C1=N/NC(=S)Nc1cccc(Cl)c1	inactive
Cc1ccc(-c2cc(-c3ccco3)nc(N)n2)o1	inactive
O=C(O)c1cc(N(Cc2ccccc2O)Cc2cc(O)ccc2O)ccc1O	inactive
O=c1c2ccccc2[nH]c2c(O)ccc(O)c12	inactive
O=C(O)/C=C\C(=O)Nc1ccc2c(c1)-c1ccccc1C2	inactive

All values here come from ChEMBL document CHEMBL1201862.
